Catalogue of sequences with associated apparent KD of K4 kissing-loop reporter
Tested on: K4 kissing-loop RNA reporter
assayDetails: apparent KD of K4 kissing-loop reporter; higher = weaker reporter binding
conditionContext: Eterna round: R107; input ligand: FMN 200 uM

monomerSequence	apparent KD of K4 kissing-loop reporter (nM)
AGGUCACCACUACAGUGAUGUUGUGGAGAGCAGGAUAUGCAGAAAUGCAGAAGGGCUCGCUCUCGGUGACCGAAUGAAACAUUCA [Omei KL FMN A SS A v7]	404
CUGACGCUGAUACGGUGGCCGCUGGUCGUGCGAGGACCGGUACGGCCGCCACUCGCAUGAGUGAUGUUCAUGUGUCGUCGUCGUC [#07 K4 Tryptophan A Exclusion]	122
AAACAUUGGUCUGAUACCAGCUGAUCGGAAACGAUCUUGCUGGAGUGAUGUUCCAAGUAAAGCCCUUGGCAGCAGACCGAUGAAA [MAT - Same State Theophlline B - Mod of Eli - D19]	108
UGUCGGUGAAGAAUGUUAGUGAUGUUGGCACGAGGACCGGUACGGCCGCCACUCGGUAAUCAUCGCAAUUAUCGAUGGCGUAGCC [theeternabot_exclusion_KL_Trp_A_3]	183
AAAAUAAGCCAGUGAUGUUGGUAUACAGAUACCAGCGACGAAAGUCGCCCUUGGCAGCUGUGGACGUACAAAAUAAGUACGUCCU	364

----------
System: K4 kissing-loop RNA reporter
assayDetails: apparent KD of K4 kissing-loop reporter; higher = weaker reporter binding
conditionContext: Eterna round: R107; input ligand: theophylline 20 uM
parameterMeasured: apparent KD of K4 kissing-loop reporter (nM)

monomerSequence	parameterMeasured	valueReported
GCAUCCAUGGCAGGAUAUAGGUUCAUGGAGUGAUGUUCCAUAACCCGAGUGAUGUUCGUUAUCCACCUAGAAGGGCCAUGGAUGC	apparent KD of K4 kissing-loop reporter	196
CACCUGCCAUAAGGAUAUUCGUCUUUGCGCUUCCAGUGAUGUUGGAGAUCGCAACACAUGGUCAUAGAAGAAGGUAUGGUAUUAA [theeternabot_sameState_KL_FMN_B_35]	apparent KD of K4 kissing-loop reporter	191
UGAGGAGAUUAUGAUACCAGCAGAGAGAGAGAGGAAGUAUAGUGAUGUUAUAUGAGAUAAUGCCCUUGGCAGCAUAAGAAGAAGG [#20 K4 Theophylline B Same State]	apparent KD of K4 kissing-loop reporter	147
GAGAUAGCGACGGCCGCCACUAGUGAUGUUAGUGCUGGUAGAUAGAUACUGGAACAGAAAUGACGUAGGACCGGGUCAGAUAGAG [#01 K4 Tryptophan B Exclusion]	apparent KD of K4 kissing-loop reporter	334
CGUCUAUAGCAGGAUACCAGUACCCAUUAUGUACGUUUAUAGUAGAGUGAUGUUCUAAAGUACCCUUGGCAGCUUCCUGUGACCC [#24 K4 Theophylline B Exclusion]	apparent KD of K4 kissing-loop reporter	206
CGAGUGAUGUUCGAAGAGUUGUUAAGCGAUACCAGCUAGGAGACUGGCCCUUGGCAGCGUAAUAAGUUAAUAAAUAAAUGAUCAC [whbob_Ex_Theo_A_th65]	apparent KD of K4 kissing-loop reporter	506
GAGAUAGAGGCGGCCGCCACUAGUGAUGUUAGUGAUGUUAGAAAGAGAAUAGAACAGGGAUUAGAUAGGACCGGGCCAGAUGGAG [vvhmullin]	apparent KD of K4 kissing-loop reporter	62.2
UGUAUGUGUCAGCGAGUGAUGUUCGACGAUACCAGACUCGAUAGAGUCCCUUGGCAGCGUAAUGCAUGCCAACUGGCACAUACUA [#SwitchBubble 12 #K4Early]	apparent KD of K4 kissing-loop reporter	608
UGAUAGGACAGAAGGAGCGGAGGUCGUCAAAGACGACCAAUAACGUUGAUAGGAGUGAUGUUCCAGGUAGGUCGCUGUCCUAUCU [ArgBX 29 #SwitchBubble #StaticStem]	apparent KD of K4 kissing-loop reporter	152
ACUGGGUUGACGAAAGUCAACAAAAGAGAAGGAGCGCACGAAAGUGCAGGUAGGUCGCUCAUUCCAGUGAUGUUGGAUCACCAGA [#SwitchBubble 18 #K4Late]	apparent KD of K4 kissing-loop reporter	279

----------
Test system: MS2 coat protein
assayDetails: apparent KD of MS2 coat protein; designed switch direction (-1 OFF switch, 1 ON switch): -1; higher = weaker reporter binding
conditionContext: Eterna round: R95; input ligand: none
parameterMeasured: apparent KD of MS2 coat protein (µM)

monomerSequence	valueReported
AGUACUAACACGAAAGUGUUAGUACUAUAAGCUUGUGUUACAUGAGGAUCACCCAUGUCCUCAUAAGCUCGUCUUAA [Mat - Sensor v3 - Turn-off var 2 - D63] (puzzle: Sensor v3, turn-off variant 2)	0.041
ACCUCUAUCUAGGAUAUUGGAACCCGGUUAAAACAAGAAGGAGAUACAUGAGGAUCACCCAUGUUAACGAUGGA [Ereseninso] (puzzle: Exclusion 6)	0.0285
UACCGGCGGACCGAAGCUUUUUGCUUGUUUUAUACUACAACAUGAGGAUCACCCAUGUGGUGGUGGUCCGUUGUAGU [JL ViennaUCT Bitein mod 1] (puzzle: Sensor v3, turn-off variant 2)	0.0586
AAGUACCGUCACGAUAGUGAUGGUACAACAAGCAGUGAUACAUGAGGAUCACCCAUGUCCUCAAUUGCUCGUCUUAU [Sensor 3 - 75] (puzzle: Sensor v3, turn-off variant 2)	0.157
AUGAGGGUAAGAAGGUGAAGAUAGAGCGUACCUUAUGGAACAUGAGGAUCACCCAUGUAGCUUUUUGCUCGUCUUAU [JR_SV3TOV2_Sub032] (puzzle: Sensor v3, turn-off variant 2)	0.0356

----------
Tested on: MS2 coat protein
assayDetails: apparent KD of MS2 coat protein; designed switch direction (-1 OFF switch, 1 ON switch): -1; higher = weaker reporter binding
conditionContext: input ligand: FMN 200 uM
Catalogue of sequences with associated apparent KD of MS2 coat protein

monomerSequence	testSystem	apparent KD of MS2 coat protein (nM)
UCUGCCGCCGUGAGGAUAUGCCCGCGCGAACGCGGGCAGAAGGCACAUGAGGAUCACCCAUGUCCCGCGGUUUU [salish99_bmx4_r4_132] (Eterna round: R97, puzzle: Brourd's mod of Exclusion 4)	MS2 coat protein	34.7
AAAAGAUAAGGAUAUUGAAGGUUCGACAUGAGGAUCACCCAUGUUAUGUUGGAAAAGGGACAAGAAGGUAUGAAAG [salish99_ex5_r4_203] (Eterna round: R97, puzzle: Exclusion 5)	MS2 coat protein	31.5
GGAGUGUAAGGAUAUAAGACAAGGGCUAUCGGAGCCCAAAUUUAGAAGGUACAUGAGGAUCACCCAUGUGAUGA [Eternabot (L1) Solution 5] (Eterna round: R97, puzzle: Exclusion 4)	MS2 coat protein	124
UGGAGUAUGUAGGAUAUUCAGGCAAAGAAAGCCGAAGAAGGACAUACUUGAGGAUCACCCAAGUUGUCCAAAAU [Zaanatatri] (Eterna round: R97, puzzle: Exclusion 6)	MS2 coat protein	25.8
UUUGUUUAUGUAGGAUAUGCCUGGCGUGCCUUUGCAGAAGGACAUGAGGAUCACCCAUGUAACAUGAGGCUCACCCAUGUCGCA [salish99_ExNG1_r04_110] (Eterna round: R96, puzzle: Exclusion NG 1)	MS2 coat protein	682
UUGACUGGCGAGGAUAUCUCGCAAUAGUUAGGGAGAGAAGGUGCUACAUGAGGAUCACCCAUGUCAAACGAACC [Eternabot (L1) Solution 58] (Eterna round: R97, puzzle: Exclusion 6)	MS2 coat protein	17.7
CCUGGGUCAUCGCCCAGGAACAACAUGAGGAUCACCCAUGUCUAGGAUAUCCACCAGUCAAUAAAGGAGAAGGAGACGGUGGUU [Enusonor] (Eterna round: R96, puzzle: Exclusion NG 3)	MS2 coat protein	22.9
UAUUAGCAAGCAACUGGGUACAUGAGGAUCACCCAUGUGCUCGUCUUAUAAGGUACUGUGACGAAAGUCACUGUACC [mod--Eli14] (Eterna round: R97, puzzle: Sensor, turn-off variant 1)	MS2 coat protein	17.8

----------
Catalogue of sequences with associated apparent KD of K4 kissing-loop reporter
System: K4 kissing-loop RNA reporter;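 note: bound reporter read as fluorescence of individual clusters on recovered sequencing chips by microscopy, with normalized cluster intensities fitted with a binding model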
assayDetails: apparent KD of K4 kissing-loop reporter; higher = weaker reporter binding
conditionContext: Eterna round: R107; input ligand: FMN 200 uM
parameterMeasured: apparent KD of K4 kissing-loop reporter (nM)

monomerSequence	testSystem	valueReported
GUUUGGCGGACGGCCGCCACUCGGACGAGUCACAGUGAUGUUGUGGUUUGCCAGUCGACUUCAUCGAGGACCGGGUUUGUCGGGC [Exclusion Tryptophan B GF 20]	K4 kissing-loop RNA reporter	363
AAAUUCUUUUUUUUAUAUAACAAUUCAGAAGGAGCGUGGUAGAACACAGGUAGGUCGCUGAAUAUAAGACUAGUGAUGUUAGUAA [JR_SSArginiA_Sub010]	K4 kissing-loop RNA reporter	153
AUAUUUAUUUAGUCACUUUUAAUAUUAUGUCAGGAUAUCGUAAUUUCGAGAAGGGACUCAUGCUAGUGAUGUUAGCUAAUUCUCA [JR_Nu3_ExcFMNA_Sub023]	K4 kissing-loop RNA reporter	102
UGACUGGAUGGAAGGAGCGCUAAACUCCUAGUGAUGUUAGGGAUAUGAGGCAAAGCCUCGAGGCAGGUAGGUCGCCAUCUAGUCU [FiskerMod 19 - Jieux - Same State - Arginine B]	K4 kissing-loop RNA reporter	138
AGACCACAAAGUGGUCAGUGUUCGCGGCAGCGAGGACCGGUACGGCCGCCACUCGCGAGUGAUGUUCGCGAGAGCCGCGAACACA [Omei KL Tryp A Exc A v8]	K4 kissing-loop RNA reporter	82.7
AAUGAUCGUAUGGCGAGGUACUCGUGUUCGAAGGAUAUUAAUAGAAUAAGAAGGUCGAAAUCGUGUCUGGAAGUGAUGUUUCCAU [theeternabot_sameState_KL_FMN_A_32]	K4 kissing-loop RNA reporter	111
GGUUCUGUUUUAGGUUUAGUGAUGUUGAAUCGAGGACCGGUACGGCCGCCACUCGGUGACGUCGUAACUUUGGAGGUCCUAACCA [theeternabot_exclusion_KL_Trp_A_47]	K4 kissing-loop RNA reporter	764
